# Bliss excess per record follows
test system: OVTOKO (Ovarian Carcinoma); test: Bliss excess, mean over the matrix (fraction); higher = more synergy
Give only the figure.

Which value of Bliss excess has been reported for C=CCn1c(=O)c2cnc(Nc3ccc(N4CCN(C)CC4)cc3)nc2n1-c1cccc(C(C)(C)O)n1 [AZD1775] + O=C(c1cc(Cc2n[nH]c(=O)c3ccccc23)ccc1F)N1CCN(C(=O)C2CC2)CC1 [Olaparib] (first compound max 1 µM, partner max 10 µM) in the records?
-0.0514

I am curious: what Bliss excess value has been reported for CC(=O)c1c(C)c2cnc(Nc3ccc(N4CCNCC4)cn3)nc2n(C2CCCC2)c1=O [Palbociclib] + CC1(C)CCC(CN2CCN(c3ccc(C(=O)NS(=O)(=O)c4ccc(NCC5CCOCC5)c([N+](=O)[O-])c4)c(Oc4cnc5[nH]ccc5c4)c3)CC2)=C(c2ccc(Cl)cc2)C1 [Venetoclax] (first compound max 10 µM, 7x7, partner max 1 µM) ?
-0.0114

Fill in the blank: the reported Bliss excess of CN(CCO)CC[C@H](CSc1ccccc1)Nc1ccc(S(=O)(=O)NC(=O)c2ccc(N3CCC([C@@H](O)c4ccccc4-c4ccc(Cl)cc4)CC3)cc2)cc1S(=O)(=O)C(F)(F)F [AZD4320] + CN(C)CCCOc1ccc(-c2ccc3ncc4c(c3c2)n(C2CCOCC2)c(=O)n4C)cn1 [AZD0156] (first compound max 1 µM, 7x7, partner max 1 µM) is ____.
-0.0217

Bliss excess for CC(=O)Nc1cccc(-n2c(=O)n(C3CC3)c(=O)c3c(Nc4ccc(I)cc4F)n(C)c(=O)c(C)c32)c1 [Trametinib] + Cc1nc(-c2cn3c(n2)-c2ccc(-c4cnn(C(C)(C)C(N)=O)c4)cc2OCC3)n(C(C)C)n1 [Taselisib] (first compound max 1 µM, 7x7, partner max 10 µM) ?
0.0659

If you can, please state the reported Bliss excess value of CN(CCO)CC[C@H](CSc1ccccc1)Nc1ccc(S(=O)(=O)NC(=O)c2ccc(N3CCC([C@@H](O)c4ccccc4-c4ccc(Cl)cc4)CC3)cc2)cc1S(=O)(=O)C(F)(F)F [AZD4320] + C=CCn1c(=O)c2cnc(Nc3ccc(N4CCN(C)CC4)cc3)nc2n1-c1cccc(C(C)(C)O)n1 [AZD1775] (first compound max 1 µM, partner max 1 µM) .
0.0002

Look up Bliss excess: Cc1cc2ncnn2cc1Nc1ncc2c(n1)n(C1CCOCC1)c(=O)n2C [AZD7648] + CN(C)CCCOc1ccc(-c2ccc3ncc4c(c3c2)n(C2CCOCC2)c(=O)n4C)cn1 [AZD0156] (first compound max 10 µM, 7x7, partner max 1 µM)
-0.0537

====

system: AN3-CA (Endometrial Carcinoma); experiment: combination Emax (second highest fraction inhibited in the dose matrix, 72 h); higher = more inhibition; extreme values may be limits of the assay
Here the recorded combination Emax is given for each entry.
Reply with the value as a number alone.

Fill in the blank: the reported combination Emax of Cc1c2c(nn1C)CSCc1cc(n(C)n1)CSc1cc(c3ccccc3c1)OCCCc1c(C(=O)O)n(C)c3c-2c(Cl)ccc13 [AZD5991] + C1CN(CCC1(C(=O)N[C@@H](CCO)C2=CC=C(C=C2)Cl)N)C3=NC=NC4=C3C=CN4 [Capivasertib] (first compound max 1 µM, 7x7, partner max 3 µM) is ____.
0.951

Query (molecule): C=CCn1c(=O)c2cnc(Nc3ccc(N4CCN(C)CC4)cc3)nc2n1-c1cccc(C(C)(C)O)n1 [AZD1775] + C1CN(CCC1(C(=O)N[C@@H](CCO)C2=CC=C(C=C2)Cl)N)C3=NC=NC4=C3C=CN4 [Capivasertib] (first compound max 3 µM, partner max 3 µM) ; field requested: combination Emax
0.905

Which combination Emax is listed for CCN(CCO)CCCOc1ccc2c(Nc3cc(CC(=O)Nc4cccc(F)c4)[nH]n3)ncnc2c1 [AZD2811] + O=C(c1cc(Cc2n[nH]c(=O)c3ccccc23)ccc1F)N1CCN(C(=O)C2CC2)CC1 [Olaparib] (first compound max 1 µM, 7x7, partner max 10 µM) ?
0.282

====

Parameter Bliss excess: see the listing below.
tested on: RMG-I (Ovarian Carcinoma); test: Bliss excess, mean over the matrix (fraction); higher = more synergy
Keep the answer to the number alone.

Below, 4 compounds whose answers are already recorded.
# Compound, Measurement Target, Bliss excess
records = [
    ("CC1(C)CCC(CN2CCN(c3ccc(C(=O)NS(=O)(=O)c4ccc(NCC5CCOCC5)c([N+](=O)[O-])c4)c(Oc4cnc5[nH]ccc5c4)c3)CC2)=C(c2ccc(Cl)cc2)C1 [Venetoclax] + C1CN(CCC1(C(=O)N[C@@H](CCO)C2=CC=C(C=C2)Cl)N)C3=NC=NC4=C3C=CN4 [Capivasertib] (first compound max 1 µM, 7x7, partner max 3 µM)", "RMG-I (Ovarian Carcinoma)", -0.0823),
    ("COc1nnc2ccc(N3CCC(c4ccc(OCCN5CCN(C)C(=O)[C@H]5C)cc4)CC3)nn12 [AZD5153] + Cc1c2c(nn1C)CSCc1cc(n(C)n1)CSc1cc(c3ccccc3c1)OCCCc1c(C(=O)O)n(C)c3c-2c(Cl)ccc13 [AZD5991] (first compound max 1 µM, 7x7, partner max 1 µM)", "RMG-I (Ovarian Carcinoma)", -0.0553),
    ("Cc1c2c(nn1C)CSCc1cc(n(C)n1)CSc1cc(c3ccccc3c1)OCCCc1c(C(=O)O)n(C)c3c-2c(Cl)ccc13 [AZD5991] + Cn1cnc2c(F)c(Nc3ccc(Br)cc3Cl)c(C(=O)NOCCO)cc21 [Selumetinib] (first compound max 1 µM, 7x7, partner max 3 µM)", "RMG-I (Ovarian Carcinoma)", -0.0027),
    ("CC1(C)CCC(CN2CCN(c3ccc(C(=O)NS(=O)(=O)c4ccc(NCC5CCOCC5)c([N+](=O)[O-])c4)c(Oc4cnc5[nH]ccc5c4)c3)CC2)=C(c2ccc(Cl)cc2)C1 [Venetoclax] + C[C@@H](Nc1cc(F)cc(F)c1)c1cc(C(=O)N(C)C)cc2c(=O)cc(N3CCOCC3)oc12 [AZD8186] (first compound max 1 µM, 7x7, partner max 3 µM)", "RMG-I (Ovarian Carcinoma)", -0.0274),
]

State the recorded Bliss excess for this entry: CCN(CCO)CCCOc1ccc2c(Nc3cc(CC(=O)Nc4cccc(F)c4)[nH]n3)ncnc2c1 [AZD2811] + O=C(c1cc(Cc2n[nH]c(=O)c3ccccc23)ccc1F)N1CCN(C(=O)C2CC2)CC1 [Olaparib] (first compound max 1 µM, 7x7, partner max 10 µM)
-0.0141

May I ask what Bliss excess has been recorded for NC1(C(=O)N[C@@H](CCO)c2ccc(Cl)cc2)CCN(c2ncnc3[nH]ccc23)CC1 [Capivasertib] + CC(=O)c1c(C)c2cnc(Nc3ccc(N4CCNCC4)cn3)nc2n(C2CCCC2)c1=O [Palbociclib] (first compound max 10 µM, 7x7, partner max 10 µM) ?
-0.0098

I'd like to know its Bliss excess. The compound in question is COc1nnc2ccc(N3CCC(c4ccc(OCCN5CCN(C)C(=O)[C@H]5C)cc4)CC3)nn12 [AZD5153] + Cn1cnc2c(F)c(Nc3ccc(Br)cc3Cl)c(C(=O)NOCCO)cc21 [Selumetinib] (first compound max 1 µM, 7x7, partner max 10 µM)
-0.0486

====

tested on: RPMI-8866 (Chronic Myelogenous Leukemia); assay: combination Emax (second highest fraction inhibited in the dose matrix, 72 h); higher = more inhibition; extreme values may be limits of the assay
Parameter: combination Emax
Enter the number alone.

# Compound, Data Value
rows = [
    ("CC1(C)CCC(CN2CCN(c3ccc(C(=O)NS(=O)(=O)c4ccc(NCC5CCOCC5)c([N+](=O)[O-])c4)c(Oc4cnc5[nH]ccc5c4)c3)CC2)=C(c2ccc(Cl)cc2)C1 [Venetoclax] + CCN(CCO)CCCOc1ccc2c(Nc3cc(CC(=O)Nc4cccc(F)c4)[nH]n3)ncnc2c1 [AZD2811] (first compound max 1 µM, 7x7, partner max 1 µM)", 0.601),
]

Entry COc1cccc(OCCCN)c1-c1cc(Nc2cnc(C#N)cn2)n[nH]1 [Prexasertib] + CCc1c2c(nc3ccc(O)cc13)-c1cc3c(c(=O)n1C2)COC(=O)[C@]3(O)CC [SN-38] (first compound max 1 µM, 7x7, partner max 0.3 µM) , system RPMI-8866 (Chronic Myelogenous Leukemia): what combination Emax was measured?
1

====

test system: CML-T1 (Chronic Myelogenous Leukemia); experiment: Bliss excess, mean over the matrix (fraction); higher = more synergy
Decide by Bliss excess: equal to or exceeding 0.02 means true, less means false.

These solved cases illustrate the format of a correct answer.
# Compound, Category Label
rows = [
    ("Cc1c2c(nn1C)CSCc1cc(n(C)n1)CSc1cc(c3ccccc3c1)OCCCc1c(C(=O)O)n(C)c3c-2c(Cl)ccc13 [AZD5991] + CS(=O)(=O)CCNCc1ccc(-c2ccc3ncnc(Nc4ccc(OCc5cccc(F)c5)c(Cl)c4)c3c2)o1 [Lapatinib] (first compound max 1 µM, 7x7, partner max 10 µM)", "true"),
    ("COc1nnc2ccc(N3CCC(c4ccc(OCCN5CCN(C)C(=O)[C@H]5C)cc4)CC3)nn12 [AZD5153] + C=CCn1c(=O)c2cnc(Nc3ccc(N4CCN(C)CC4)cc3)nc2n1-c1cccc(C(C)(C)O)n1 [AZD1775] (first compound max 1 µM, partner max 1 µM)", "false"),
    ("CN(C)CCCOc1ccc(-c2ccc3ncc4c(c3c2)n(C2CCOCC2)c(=O)n4C)cn1 [AZD0156] + O=C(c1cc(Cc2n[nH]c(=O)c3ccccc23)ccc1F)N1CCN(C(=O)C2CC2)CC1 [Olaparib] (first compound max 3 µM, partner max 3 µM)", "true"),
    ("CC1(C)CCC(CN2CCN(c3ccc(C(=O)NS(=O)(=O)c4ccc(NCC5CCOCC5)c([N+](=O)[O-])c4)c(Oc4cnc5[nH]ccc5c4)c3)CC2)=C(c2ccc(Cl)cc2)C1 [Venetoclax] + CN(C)CCCOc1ccc(-c2ccc3ncc4c(c3c2)n(C2CCOCC2)c(=O)n4C)cn1 [AZD0156] (first compound max 1 µM, 7x7, partner max 1 µM)", "true"),
]

Check if Bliss excess >= 0.02 (inclusive). Item: CS(=O)(=O)CCNCc1ccc(-c2ccc3ncnc(Nc4ccc(OCc5cccc(F)c5)c(Cl)c4)c3c2)o1 [Lapatinib] + Cn1cnc2c(F)c(Nc3ccc(Br)cc3Cl)c(C(=O)NOCCO)cc21 [Selumetinib] (first compound max 10 µM, 7x7, partner max 10 µM)
false

For this compound, is measured Bliss excess 0.02 or higher? N#Cc1cnc(Nc2cc(NC[C@H]3CNCCO3)c(C(F)(F)F)cn2)cn1 [SRA737] + CCc1c2c(nc3ccc(O)cc13)-c1cc3c(c(=O)n1C2)COC(=O)[C@]3(O)CC [SN-38] (first compound max 10 µM, 7x7, partner max 0.3 µM)
false

hey, is Bliss excess for this one >= 0.02? Cc1cc2ncnn2cc1Nc1ncc2c(n1)n(C1CCOCC1)c(=O)n2C [AZD7648] + C=CCn1c(=O)c2cnc(Nc3ccc(N4CCN(C)CC4)cc3)nc2n1-c1cccc(C(C)(C)O)n1 [AZD1775] (first compound max 10 µM, partner max 1 µM)
false
